Target: mouse PPARγ ligand-binding site (Mus musculus)
Construct: expressed in transfected cells; host or cells: CV-1 cells (African green monkey kidney)
Sequence (P37238 174-475 isoform P37238-2): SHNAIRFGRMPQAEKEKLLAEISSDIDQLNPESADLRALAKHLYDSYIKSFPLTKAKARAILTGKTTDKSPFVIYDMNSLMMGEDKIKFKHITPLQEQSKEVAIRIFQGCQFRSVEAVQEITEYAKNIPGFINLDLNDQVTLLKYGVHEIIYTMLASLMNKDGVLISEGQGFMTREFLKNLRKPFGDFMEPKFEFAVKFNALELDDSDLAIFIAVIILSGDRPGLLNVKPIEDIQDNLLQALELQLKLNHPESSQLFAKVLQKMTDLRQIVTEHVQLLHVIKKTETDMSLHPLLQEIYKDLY
Test: Measurement of PPARγ ligand activity (GAL4 chimera luciferase reporter in CV-1 cells)
Type: cell-based
Conditions: added concentration 2 μg/ml; CV-1 cells, 24 hours; specific activity relative to untreated control (DMSO) = 1.00
The following compounds are listed with their measured PPARγ ligand activity values.
Please state the value as a number alone, without comment.

- Compound: "C=CC(C)(C)c1cc(/C=C/C(=O)c2ccc(O)cc2)c(OC)cc1O"
  Quantity: "PPARγ ligand activity"
  Reported Measurement: 4.02
- Compound: "COc1ccc(C2COc3c(ccc4c3C=CC(C)(C)O4)C2)c(O)c1O (stereo not shown) [Compound 22, 3′-Hydroxyl-4′-O-methylglabridin]"
  Quantity: "PPARγ ligand activity"
  Reported Measurement: 1.61
- Compound: "CC1(C)C=Cc2c(ccc3c2OC[C@@H](c2ccc(O)cc2O)C3)O1"
  Quantity: "PPARγ ligand activity"
  Reported Measurement: 1.64

Give the reported PPARγ ligand activity for this compound. COc1cc(O)ccc1/C=C/C(=O)c1ccc(O)cc1
1.45
